Recorded measurements of pKd, one per entry
# TEST_SYSTEM: FKBP51 / FRB ternary complex (Homo sapiens (Human), UniProt P42345+Q13451)
# Sequence (Q13451 whole entry): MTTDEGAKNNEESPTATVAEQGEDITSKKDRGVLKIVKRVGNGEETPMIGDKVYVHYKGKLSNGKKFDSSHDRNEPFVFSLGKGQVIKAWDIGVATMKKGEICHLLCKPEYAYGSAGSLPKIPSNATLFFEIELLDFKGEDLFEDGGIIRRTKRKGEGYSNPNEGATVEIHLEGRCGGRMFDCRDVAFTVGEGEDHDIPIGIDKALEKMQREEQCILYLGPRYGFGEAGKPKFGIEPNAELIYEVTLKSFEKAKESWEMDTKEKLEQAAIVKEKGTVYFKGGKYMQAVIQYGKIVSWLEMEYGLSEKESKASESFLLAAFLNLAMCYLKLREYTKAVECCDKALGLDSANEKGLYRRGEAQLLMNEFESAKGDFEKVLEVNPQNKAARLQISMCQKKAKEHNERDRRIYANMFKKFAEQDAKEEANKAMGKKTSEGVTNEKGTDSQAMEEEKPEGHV
# Sequence (P42345 2012-2144): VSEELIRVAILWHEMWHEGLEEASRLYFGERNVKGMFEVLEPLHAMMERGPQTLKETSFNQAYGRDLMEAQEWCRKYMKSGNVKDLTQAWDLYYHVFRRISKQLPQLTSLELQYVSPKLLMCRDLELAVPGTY
# ASSAY_EXPLANATION: SPR assay to characterize ternary complex formation with FKBP51 (FRB binding to rapalog-saturated FKBP51)
# EXPERIMENTAL_PARAMETERS: FRB dilutions with 100 nM rapalog on immobilized FKBP51
pKd: −log10 of the molar value.

These solved cases illustrate the format of a correct answer.
[[record]]
compound = "COCCS(=O)(=O)NC1CC2CCC(C)C(O)(O2)C(=O)C(=O)N2CCCCC2C(=O)OC(C(C)CC2CCC(OCCCS(C)(=O)=O)C(OC)C2)CC(=O)C(C)C=C(C)C(O)C(OC)C(=O)C(C)CC(C)C=CC=CC=C1C (mixture of isomers)"
value_kind = "pKd"
reported_measurement = "< 6.10"

[[record]]
compound = "CO[C@@H]1C[C@H](C[C@@H](C)[C@@H]2CC(=O)[C@H](C)/C=C(\\C)[C@@H](O)[C@@H](OC)C(=O)[C@H](C)C[C@H](C)/C=C/C=C/C=C(\\C)[C@@H](OCCC3CCOC3)C[C@@H]3CC[C@@H](C)[C@@](O)(O3)C(=O)C(=O)N3CCCC[C@H]3C(=O)O2)CC[C@H]1O (stereo partly shown)"
value_kind = "pKd"
reported_measurement = "< 6.10"

[[record]]
compound = "CCOC(=O)COC1CCC(CC(C)C2CC(=O)C(C)C=C(C)C(O)C(OC)C(=O)C(C)CC(C)C=CC=CC=C(C)C(OCC3CC3)CC3CCC(C)C(O)(O3)C(=O)C(=O)N3CCCCC3C(=O)O2)CC1OC (stereo not shown) [Compound 51]"
value_kind = "pKd"
reported_measurement = "< 6.10"


### Prompt May I ask what pKd has been recorded for COC1CC(CC(C)C2CC(=O)C(C)C=C(C)C(O)C(OC)C(=O)C(C)CC(C)C=CC=CC=C(C)C(OC3CC3)CC3CCC(C)C(O)(O3)C(=O)C(=O)N3CCCCC3C(=O)O2)CCC1OCCO (stereo not shown) [Compound 46] ?
### Response 6.10 to 6.52

====

# TEST_SYSTEM: FKBP12 / FRB ternary complex (Homo sapiens (Human), UniProt P42345+P62942)
# Sequence (P62942 whole entry): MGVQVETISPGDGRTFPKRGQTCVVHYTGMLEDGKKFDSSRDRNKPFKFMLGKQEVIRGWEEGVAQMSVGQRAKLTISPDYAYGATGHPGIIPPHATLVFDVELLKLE
# Sequence (P42345 2012-2144): as the sequence (P42345 2012-2144) above
# ASSAY_EXPLANATION: SPR assay to characterize ternary complex formation with FKBP12 (FRB binding to rapalog-saturated FKBP12)
# EXPERIMENTAL_PARAMETERS: FRB dilutions with 100 nM rapalog on immobilized FKBP12
pKd: −log10 of the molar value.
VALUE_KIND: pKd

These solved cases illustrate the format of a correct answer.
[[record]]
molecule = "COC1CC(CC(C)C2CC(=O)C(C)C=C(C)C(O)C(OC)C(=O)C(C)CC(C)C=CC=CC=C(C)C(OC3CC3)CC3CCC(C)C(O)(O3)C(=O)C(=O)N3CCCCC3C(=O)O2)CCC1OCCO (stereo not drawn) [Compound 46]"
reported_measurement = "6.10 to 6.52"

[[record]]
molecule = "CO[C@@H]1C[C@H](C[C@@H](C)[C@@H]2CC(=O)[C@H](C)/C=C(\\C)[C@@H](O)[C@@H](OC)C(=O)[C@H](C)C[C@H](C)/C=C/C=C/C=C(\\C)[C@H](OCCCO)C[C@@H]3CC[C@@H](C)[C@@](O)(O3)C(=O)C(=O)N3CCCC[C@H]3C(=O)O2)CC[C@H]1OCCCS(C)(=O)=O"
reported_measurement = "6.10 to 6.52"


### Prompt May I ask what pKd has been recorded for CO[C@@H]1C[C@H](C[C@@H](C)[C@@H]2CC(=O)[C@H](C)/C=C(\C)[C@@H](O)[C@@H](OC)C(=O)[C@H](C)C[C@H](C)/C=C/C=C/C=C(\C)[C@@H](OCCCO)C[C@@H]3CC[C@@H](C)[C@@](O)(O3)C(=O)C(=O)N3CCCC[C@H]3C(=O)O2)CC[C@H]1OCCCS(C)(=O)=O ?
### Response > 6.52

### Prompt May I ask what pKd has been recorded for COCCO[C@H]1C[C@@H]2CC[C@@H](C)[C@@](O)(O2)C(=O)C(=O)N2CCCC[C@H]2C(=O)O[C@H]([C@H](C)C[C@@H]2CC[C@@H](OCCCS(C)(=O)=O)[C@H](OC)C2)CC(=O)[C@H](C)/C=C(\C)[C@@H](O)[C@@H](OC)C(=O)[C@H](C)C[C@H](C)/C=C/C=C/C=C/1C ?
### Response > 6.52

### Prompt May I ask what pKd has been recorded for COC1CC(CC(C)C2CC(=O)C(C)C=C(C)C(O)C(OC)C(=O)C(C)CC(C)C=CC=CC=C(C)C(OCC3CC3)CC3CCC(C)C(O)(O3)C(=O)C(=O)N3CCCCC3C(=O)O2)CCC1OCCO (stereo not drawn) ?
### Response > 6.52

### Prompt May I ask what pKd has been recorded for CO[C@@H]1C[C@H](C[C@@H](C)[C@@H]2CC(=O)[C@H](C)/C=C(\C)[C@@H](O)[C@@H](OC)C(=O)[C@H](C)C[C@H](C)/C=C/C=C/C=C(\C)[C@@H](OCC3CCC3)C[C@@H]3CC[C@@H](C)[C@@](O)(O3)C(=O)C(=O)N3CCCC[C@H]3C(=O)O2)CC[C@H]1OCCCS(C)(=O)=O ?
### Response > 6.52

### Prompt May I ask what pKd has been recorded for CO[C@@H]1C[C@H](C[C@@H](C)[C@@H]2CC(=O)[C@H](C)/C=C(\C)[C@@H](O)[C@@H](OC)C(=O)[C@H](C)C[C@H](C)/C=C/C=C/C=C(\C)[C@H](NS(=O)(=O)CC3CCOCC3)C[C@@H]3CC[C@@H](C)[C@@](O)(O3)C(=O)C(=O)N3CCCC[C@H]3C(=O)O2)CC[C@H]1O ?
### Response < 6.10

### Prompt May I ask what pKd has been recorded for COCCOCCOC1CC2CCC(C)C(O)(O2)C(=O)C(=O)N2CCCCC2C(=O)OC(C(C)CC2CCC(OCCCS(C)(=O)=O)C(OC)C2)CC(=O)C(C)C=C(C)C(O)C(OC)C(=O)C(C)CC(C)C=CC=CC=C1C (mixture of isomers) ?
### Response 6.10 to 6.52

### Prompt May I ask what pKd has been recorded for COCCOCCS(=O)(=O)NC1CC2CCC(C)C(O)(O2)C(=O)C(=O)N2CCCCC2C(=O)OC(C(C)CC2CCC(OCCCO)C(OC)C2)CC(=O)C(C)C=C(C)C(O)C(OC)C(=O)C(C)CC(C)C=CC=CC=C1C (stereo not drawn) [Compound 3] ?
### Response < 6.10

### Prompt May I ask what pKd has been recorded for CO[C@@H]1C[C@H](C[C@@H](C)[C@@H]2CC(=O)[C@H](C)/C=C(\C)[C@@H](O)[C@@H](OC)C(=O)[C@H](C)C[C@H](C)/C=C/C=C/C=C(\C)[C@@H](OCC3CCOC3)C[C@@H]3CC[C@@H](C)[C@@](O)(O3)C(=O)C(=O)N3CCCC[C@H]3C(=O)O2)CC[C@H]1O (stereo partly drawn) ?
### Response < 6.10

### Prompt May I ask what pKd has been recorded for COCCOCCS(=O)(=O)NC1CC2CCC(C)C(O)(O2)C(=O)C(=O)N2CCCCC2C(=O)OC(C(C)CC2CCC(OCCCS(C)(=O)=O)C(OC)C2)CC(=O)C(C)C=C(C)C(O)C(OC)C(=O)C(C)CC(C)C=CC=CC=C1C (mixture of isomers) ?
### Response > 6.52

### Prompt May I ask what pKd has been recorded for COCCOCCS(=O)(=O)NC1CC2CCC(C)C(O)(O2)C(=O)C(=O)N2CCCCC2C(=O)OC(C(C)CC2CCC(OCCCO)C(OC)C2)CC(=O)C(C)C=C(C)C(O)C(OC)C(=O)C(C)CC(C)C=CC=CC=C1C (stereo not drawn) [Compound 2] ?
### Response > 6.52

### Prompt May I ask what pKd has been recorded for COCCOCCS(=O)(=O)N[C@@H]1C[C@@H]2CC[C@@H](C)[C@@](O)(O2)C(=O)C(=O)N2CCCC[C@H]2C(=O)O[C@H]([C@H](C)C[C@@H]2CC[C@@H](O)[C@H](OC)C2)CC(=O)[C@H](C)/C=C(\C)[C@@H](O)[C@@H](OC)C(=O)[C@H](C)C[C@H](C)/C=C/C=C/C=C/1C ?
### Response 6.10 to 6.52

### Prompt May I ask what pKd has been recorded for COC1CC(CC(C)C2CC(=O)C(C)C=C(C)C(O)C(OC)C(=O)C(C)CC(C)C=CC=CC=C(C)C(OC3CC3)CC3CCC(C)C(O)(O3)C(=O)C(=O)N3CCCCC3C(=O)O2)CCC1OCCO (stereo not drawn) [Compound 47] ?
### Response > 6.52

### Prompt May I ask what pKd has been recorded for CO[C@@H]1C[C@H](C[C@@H](C)[C@@H]2CC(=O)[C@H](C)/C=C(\C)[C@@H](O)[C@@H](OC)C(=O)[C@H](C)C[C@H](C)/C=C/C=C/C=C(\C)[C@@H](OCC3CCS(=O)(=O)C3)C[C@@H]3CC[C@@H](C)[C@@](O)(O3)C(=O)C(=O)N3CCCC[C@H]3C(=O)O2)CC[C@H]1O (stereo partly drawn) ?
### Response < 6.10
